Biological target: EGFR L858R/T790M/C797S (Homo sapiens, UniProt P00533, C797S/L858R/T790M)
Sequence (P00533 25-1210 T790M/C797S/L858R): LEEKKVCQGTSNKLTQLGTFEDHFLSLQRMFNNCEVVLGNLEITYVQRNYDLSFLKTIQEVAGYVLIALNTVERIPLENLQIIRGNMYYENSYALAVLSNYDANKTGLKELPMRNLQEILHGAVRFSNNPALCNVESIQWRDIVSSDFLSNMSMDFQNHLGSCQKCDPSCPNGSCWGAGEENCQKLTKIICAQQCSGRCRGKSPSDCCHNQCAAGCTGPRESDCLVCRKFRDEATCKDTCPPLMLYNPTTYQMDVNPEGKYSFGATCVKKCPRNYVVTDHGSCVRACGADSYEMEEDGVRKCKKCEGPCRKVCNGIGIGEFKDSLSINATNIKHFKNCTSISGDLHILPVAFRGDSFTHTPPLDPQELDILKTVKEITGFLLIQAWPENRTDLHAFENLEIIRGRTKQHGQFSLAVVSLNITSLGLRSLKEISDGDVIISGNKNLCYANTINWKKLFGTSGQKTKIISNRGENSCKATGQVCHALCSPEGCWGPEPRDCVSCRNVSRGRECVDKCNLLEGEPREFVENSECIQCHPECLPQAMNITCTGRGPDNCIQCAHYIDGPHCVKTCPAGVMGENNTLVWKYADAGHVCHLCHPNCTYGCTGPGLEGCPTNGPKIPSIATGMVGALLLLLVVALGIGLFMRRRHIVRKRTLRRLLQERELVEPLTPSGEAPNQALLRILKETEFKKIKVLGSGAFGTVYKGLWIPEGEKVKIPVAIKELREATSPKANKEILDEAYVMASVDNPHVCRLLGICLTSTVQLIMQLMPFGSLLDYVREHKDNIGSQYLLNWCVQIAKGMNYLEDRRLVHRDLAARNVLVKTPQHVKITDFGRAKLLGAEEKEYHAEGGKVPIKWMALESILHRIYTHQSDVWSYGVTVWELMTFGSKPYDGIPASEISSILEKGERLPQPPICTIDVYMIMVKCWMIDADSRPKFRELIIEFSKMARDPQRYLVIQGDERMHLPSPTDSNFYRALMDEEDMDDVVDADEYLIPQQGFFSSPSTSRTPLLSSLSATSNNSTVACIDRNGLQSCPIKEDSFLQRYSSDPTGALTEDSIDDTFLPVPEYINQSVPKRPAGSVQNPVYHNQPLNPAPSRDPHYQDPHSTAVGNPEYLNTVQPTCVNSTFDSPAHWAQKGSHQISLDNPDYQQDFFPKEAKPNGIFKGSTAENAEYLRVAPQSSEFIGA
Assay: Biochemical EGFR kinase assay (Lance Ultra TR-FRET), triple mutant L858R/T790M/C797S
Conditions: Km ATP; read-out: IC50 L858R/T790M/C797S (nM) Km ATP
measurement kind: log10(IC50) (log10 of the value in nM)

sample smiles	log10(IC50)
CS(=O)(=O)N1CCC(c2nccc(Nc3cc(N[C@H]4CC[C@@](C)(O)CC4)c(-c4ccn(C(F)F)n4)cn3)n2)CC1	0.97
O=S(=O)(C1CC1)n1cc(-c2nccc(Nc3cc(N[C@H]4CC[C@@H](F)CC4)c(-c4ccn(C(F)F)n4)cn3)n2)cn1	-0.05
C[C@H](CCF)Nc1cc(Nc2ccnc(-c3cnn(S(=O)(=O)C4CC4)c3)n2)ncc1-c1ccn(C(F)F)n1	0.36
C[C@]1(O)CC[C@@H](Nc2cc(Nc3ccnc(-c4cnn(S(=O)(=O)N5CCCC5)c4)n3)ncc2-c2ccn(C(F)F)n2)CC1	0.66
Cn1nc(-c2cnc(Nc3ccnc(-c4cnn(CC(F)(F)F)c4)n3)cc2N[C@H]2CC[C@@](C)(O)CC2)cc1C(F)(F)F	0.08
O=S(=O)(C1CC1)n1cc(-c2nccc(Nc3cc(N[C@H]4CCC[C@H](CO)C4)c(-c4ccn(CC(F)(F)F)n4)cn3)n2)cn1	-0.30

---

Biological target: EGFR L858R/T790M/C797S (Homo sapiens, UniProt P00533, C797S/L858R/T790M)
Assay: Biochemical EGFR kinase assay (Lance Ultra TR-FRET), triple mutant L858R/T790M/C797S
Details: IC50 L858R/T790M/C797S (nM) 100 μM ATP, 100 μM ATP
Note to self: class = bucket of IC50, per low (below 0.6 nM), moderate (0.6 nM to below 2 nM), high (2 nM or more)

compound	assayed system	group
CN(C)CC1(C)CCC(Nc2cc(Nc3ccnc(-c4cnn(S(=O)(=O)C5CC5)c4)n3)ncc2-c2ccn(CC(F)F)n2)CC1 (stereo not shown) [Example 246]	EGFR L858R/T790M/C797S (Homo sapiens, UniProt P00533, C797S/L858R/T790M)	moderate
CC(O)C(C)(C)Nc1cc(Nc2ccnc(-c3cnn(S(=O)(=O)C4CC4)c3)n2)ncc1-c1ccn(C)n1 (stereo not shown) [Example 95]	EGFR L858R/T790M/C797S (Homo sapiens, UniProt P00533, C797S/L858R/T790M)	moderate
Cc1cc(-c2cnc(Nc3ccnc(-c4cnn(S(=O)(=O)C5CC5)c4)n3)cc2N[C@H]2CC[C@@H](C(C)(C)O)CC2)nn1C [Example 281]	EGFR L858R/T790M/C797S (Homo sapiens, UniProt P00533, C797S/L858R/T790M)	high
CN(C)C(=O)C[C@H]1CC[C@@H](Nc2cc(Nc3ccnc(-c4cnn(S(=O)(=O)C5CC5)c4)n3)ncc2-c2ccn(C)n2)CC1 [Example 236]	EGFR L858R/T790M/C797S (Homo sapiens, UniProt P00533, C797S/L858R/T790M)	low
O=S(=O)(C1CC1)n1cc(-c2nccc(Nc3cc(OC4CCC(OC(F)F)CC4)c(-c4cnn(C(F)F)c4)cn3)n2)cn1 (stereo not shown) [Example 70]	EGFR L858R/T790M/C797S (Homo sapiens, UniProt P00533, C797S/L858R/T790M)	high
Cc1ncc(-c2cnc(Nc3ccnc(-c4cnn(S(=O)(=O)C5CC5)c4)n3)cc2N2CCC(O)CC2)s1 [Example 89]	EGFR L858R/T790M/C797S (Homo sapiens, UniProt P00533, C797S/L858R/T790M)	high
Cn1ccc(-c2cnc(Nc3ccnc(-c4cnn(S(=O)(=O)C5CC5)c4)n3)cc2NC[C@H]2CC[C@@H](O)C2)n1 [Example 118]	EGFR L858R/T790M/C797S (Homo sapiens, UniProt P00533, C797S/L858R/T790M)	low
O=S(=O)(C1CC1)n1cc(-c2nccc(Nc3cc(NC4CC5CC(O)C4C5)c(-c4ccn(C(F)F)n4)cn3)n2)cn1 (stereo not shown) [Example 39]	EGFR L858R/T790M/C797S (Homo sapiens, UniProt P00533, C797S/L858R/T790M)	high
CN(C)CC1CCC(Nc2cc(Nc3ccnc(-c4cnn(S(=O)(=O)C5CC5)c4)n3)ncc2-c2ccn(C3COC3)n2)CC1 (stereo not shown) [Example 284]	EGFR L858R/T790M/C797S (Homo sapiens, UniProt P00533, C797S/L858R/T790M)	low
O=S(=O)(C1CC1)n1cc(-c2nccc(Nc3cc(N[C@H]4CC[C@@H](CO)CC4)c(-c4ccn(CC(F)F)n4)cn3)n2)cn1 [Example 244]	EGFR L858R/T790M/C797S (Homo sapiens, UniProt P00533, C797S/L858R/T790M)	low
Cn1cc(-c2nccc(Nc3cc(N[C@H]4CC[C@@](C)(O)CC4)c(-c4ccn(C(F)F)n4)cn3)n2)cn1 [Example 139]	EGFR L858R/T790M/C797S (Homo sapiens, UniProt P00533, C797S/L858R/T790M)	high

---

Target: EGFR L858R/C797S (Homo sapiens, UniProt P00533, C797S/L858R)
Sequence (P00533 25-1210 C797S/L858R): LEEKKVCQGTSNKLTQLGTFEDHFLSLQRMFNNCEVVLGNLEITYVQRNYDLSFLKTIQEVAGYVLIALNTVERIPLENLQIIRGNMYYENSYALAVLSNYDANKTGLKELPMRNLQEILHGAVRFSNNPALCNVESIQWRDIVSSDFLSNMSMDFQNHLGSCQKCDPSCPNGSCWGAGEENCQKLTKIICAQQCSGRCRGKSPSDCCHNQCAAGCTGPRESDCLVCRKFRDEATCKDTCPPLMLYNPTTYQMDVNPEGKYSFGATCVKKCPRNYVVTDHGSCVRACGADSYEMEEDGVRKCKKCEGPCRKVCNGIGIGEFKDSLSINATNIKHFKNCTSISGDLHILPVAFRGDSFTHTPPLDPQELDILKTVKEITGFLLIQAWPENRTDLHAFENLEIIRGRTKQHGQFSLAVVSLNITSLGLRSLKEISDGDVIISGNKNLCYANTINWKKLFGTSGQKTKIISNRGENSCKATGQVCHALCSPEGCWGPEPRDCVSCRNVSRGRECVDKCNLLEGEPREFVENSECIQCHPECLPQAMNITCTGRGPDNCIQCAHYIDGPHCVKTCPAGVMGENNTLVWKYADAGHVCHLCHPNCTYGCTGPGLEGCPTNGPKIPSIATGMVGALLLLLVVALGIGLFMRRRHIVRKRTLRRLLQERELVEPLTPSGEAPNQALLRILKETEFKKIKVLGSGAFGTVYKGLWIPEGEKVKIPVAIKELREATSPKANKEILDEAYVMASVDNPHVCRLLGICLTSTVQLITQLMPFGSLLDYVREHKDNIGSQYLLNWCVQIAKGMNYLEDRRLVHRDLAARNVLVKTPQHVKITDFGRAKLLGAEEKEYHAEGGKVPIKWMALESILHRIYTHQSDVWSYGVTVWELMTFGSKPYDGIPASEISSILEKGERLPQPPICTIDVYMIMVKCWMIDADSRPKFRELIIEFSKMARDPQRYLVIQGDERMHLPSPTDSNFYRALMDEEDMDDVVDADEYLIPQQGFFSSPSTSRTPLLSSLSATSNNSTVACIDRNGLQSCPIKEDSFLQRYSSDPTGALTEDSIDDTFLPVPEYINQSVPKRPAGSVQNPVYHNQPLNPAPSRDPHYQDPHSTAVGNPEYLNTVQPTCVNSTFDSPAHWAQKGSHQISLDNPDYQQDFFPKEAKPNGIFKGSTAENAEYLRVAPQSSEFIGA
Experiment: Biochemical EGFR kinase assay (Lance Ultra TR-FRET), double mutant L858R/C797S
Conditions: IC50 L858R/C797S (nM) 100 μM ATP, 100 μM ATP
Experimental: Biochemical EGFR kinase assays were conducted using Lance Ultra time-resolved fluorescence resonance energy transfer (TR-FRET) technology from Perkin-Elmer. […] Each kinase reactions were incubated at room temperature for 1 hour and then stopped by the addition of 4 μL of stop solution (10 mM EDTA). […] After 60 minutes incubation at room temperature the LANCE signal was measured on an EnVision Multilabel Reader (Perkin-Elmer). […]
Binarize IC50 at 20 nM; below is 1 (yes), at or above is 0 (no).

molecule	group
CO[C@H]1CCN(c2nccc(Nc3cc(N[C@H]4CC[C@@](C)(O)CC4)c(-c4ccn(C(F)F)n4)cn3)n2)C[C@H]1F [Example 111]	0 (no)
O=S(=O)(C1CC1)n1cc(-c2nccc(Nc3cc(N[C@H]4CC[C@](O)(C(F)F)CC4)c(-c4ccn(C(F)F)n4)cn3)n2)cn1 [Example 200]	0 (no)
CC(C)Nc1cc(Nc2ccnc(-c3cnn(S(=O)(=O)C4CC4)c3)n2)ncc1-c1csc(C(C)(C)O)n1 [Example 92]	0 (no)
O=S(=O)(C1CC1)n1cc(-c2nccc(Nc3cc(NC4CCC(F)(CO)CC4)c(-c4ccn(C(F)F)n4)cn3)n2)cn1 (centres unmarked) [Example 190]	0 (no)
Cn1ccc(-c2cnc(Nc3ccnc(-c4cnn(S(=O)(=O)C5CC5)c4)n3)cc2N[C@H]2CC[C@@H](C(C)(C)O)CC2)n1 [Example 42]	1 (yes)
O=S(=O)(C1CC1)n1cc(-c2nccc(Nc3cc(N[C@H]4CC[C@@H](CCO)CC4)c(-c4ccn(CC(F)(F)F)n4)cn3)n2)cn1 [Example 269]	1 (yes)
CN(C)CC1(C)CCC(Nc2cc(Nc3ccnc(-c4cnn(S(=O)(=O)C5CC5)c4)n3)ncc2-c2ccn(C(F)F)n2)CC1 (centres unmarked) [Example 207]	0 (no)
C[C@]1(O)CC[C@@H](Nc2cc(Nc3ccnc(-c4cnn(CC5CC5)c4)n3)ncc2-c2ccn(C(F)F)n2)CC1 [Example 141]	0 (no)
O=S(=O)(C1CC1)n1cc(-c2nccc(Nc3cc(OC4CCC(OC(F)F)CC4)c(-c4cnn(C(F)F)c4)cn3)n2)cn1 (centres unmarked) [Example 70]	0 (no)
Cn1ccc(-c2cnc(Nc3ccnc(-c4cnn(S(=O)(=O)C5CC5)c4)n3)cc2N[C@H]2CC[C@@H](O)CC2)n1 [Example 79]	1 (yes)
Cn1ccc(-c2cnc(Nc3ccnc(-c4cnn(S(=O)(=O)C5CC5)c4)n3)cc2NC[C@H]2CC[C@@H](O)C2)n1 [Example 118]	1 (yes)
CC1(O)CCC(Oc2cc(Nc3ccnc(-c4cnn(S(=O)(=O)C5CC5)c4)n3)ncc2-c2cnn(C(F)F)c2)CC1 (centres unmarked) [Example 73]	0 (no)
C[C@]1(O)CC[C@@H](Nc2cc(Nc3ccnc(-c4cnn(S(=O)(=O)C5CC5)c4)n3)ncc2-c2ccn(C3CC3)n2)CC1 [Example 290]	1 (yes)
CC(C)(O)c1nc(-c2cnc(Nc3ccnc(-c4cnn(S(=O)(=O)C5CC5)c4)n3)cc2N[C@H]2CC[C@@](C)(O)CC2)cs1 [Example 93]	1 (yes)

---

Target: EGFR del19/C797S (Homo sapiens, UniProt P00533, C797S/DEL746-750)
Sequence (P00533 with tags, fused parts or gaps DEL746-750/C797S): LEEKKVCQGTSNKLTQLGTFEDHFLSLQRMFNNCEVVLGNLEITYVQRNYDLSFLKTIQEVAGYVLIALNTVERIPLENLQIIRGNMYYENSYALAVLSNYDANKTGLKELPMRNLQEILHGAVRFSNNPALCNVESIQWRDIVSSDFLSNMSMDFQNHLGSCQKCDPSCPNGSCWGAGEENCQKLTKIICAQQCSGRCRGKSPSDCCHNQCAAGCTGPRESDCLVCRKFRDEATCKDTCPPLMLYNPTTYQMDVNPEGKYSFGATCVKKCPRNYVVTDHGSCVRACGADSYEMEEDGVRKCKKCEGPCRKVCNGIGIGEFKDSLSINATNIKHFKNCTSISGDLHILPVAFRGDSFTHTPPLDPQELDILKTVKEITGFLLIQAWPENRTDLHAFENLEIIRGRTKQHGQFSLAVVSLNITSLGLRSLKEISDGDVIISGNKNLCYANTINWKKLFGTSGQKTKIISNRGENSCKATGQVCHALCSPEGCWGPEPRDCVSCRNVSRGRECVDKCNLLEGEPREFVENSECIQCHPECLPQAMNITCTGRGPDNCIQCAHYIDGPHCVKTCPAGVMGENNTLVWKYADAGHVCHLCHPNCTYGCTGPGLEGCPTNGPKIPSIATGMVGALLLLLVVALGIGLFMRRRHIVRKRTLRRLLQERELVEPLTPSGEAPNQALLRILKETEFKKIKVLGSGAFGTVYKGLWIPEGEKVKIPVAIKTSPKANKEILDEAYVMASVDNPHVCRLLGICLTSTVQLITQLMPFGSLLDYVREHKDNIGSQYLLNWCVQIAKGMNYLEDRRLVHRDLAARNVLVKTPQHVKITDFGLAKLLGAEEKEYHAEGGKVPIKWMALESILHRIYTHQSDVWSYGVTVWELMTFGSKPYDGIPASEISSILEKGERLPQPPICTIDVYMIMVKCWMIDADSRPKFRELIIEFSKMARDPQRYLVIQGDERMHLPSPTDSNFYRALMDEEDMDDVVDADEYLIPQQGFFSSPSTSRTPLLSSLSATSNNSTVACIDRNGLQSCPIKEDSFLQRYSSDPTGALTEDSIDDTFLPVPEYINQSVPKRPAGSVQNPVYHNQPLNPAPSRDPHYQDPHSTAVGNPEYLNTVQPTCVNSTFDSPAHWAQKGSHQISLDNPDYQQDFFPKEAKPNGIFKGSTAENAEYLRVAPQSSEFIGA
Assay: Biochemical EGFR kinase assay (Lance Ultra TR-FRET), double mutant del19/C797S
Conditions: IC50 del19/C797S (nM) 100 μM ATP, 100 μM ATP
Protocol: Biochemical EGFR kinase assays were conducted using Lance Ultra time-resolved fluorescence resonance energy transfer (TR-FRET) technology from Perkin-Elmer. […] Each kinase reactions were incubated at room temperature for 1 hour and then stopped by the addition of 4 μL of stop solution (10 mM EDTA). […] After 60 minutes incubation at room temperature the LANCE signal was measured on an EnVision Multilabel Reader (Perkin-Elmer). […]
measurement kind: IC50 (nM)

sample smiles	readout number
CN(C)C(=O)[C@H]1CC[C@@H](Nc2cc(Nc3ccnc(-c4cnn(S(=O)(=O)C5CC5)c4)n3)ncc2-c2cc(C(F)(F)F)n(C)n2)CC1	6
O=S(=O)(C1CC1)n1cc(-c2nccc(Nc3cc(N[C@@H]4CCC[C@H](O)C4)c(-c4csc(C(F)(F)F)n4)cn3)n2)cn1	159
CN(C)CCCn1ccc(-c2cnc(Nc3ccnc(-c4cnn(S(=O)(=O)C5CC5)c4)n3)cc2NCC2(CO)COC2)n1	1
